The reported numbers originate from ChEMBL document CHEMBL4000160.

assay: Cytotoxicity against rat C6 cells assessed as cell viability at 20 uM by MTT assay relative to control; type: cell-based; details: read-out: Activity
measurement_name: viability at 20 µM (%)
One number for each entry, in %.

These solved cases illustrate the format of a correct answer.
COc1cc(C[C@@H]2C(=O)OC[C@H]2[C@@H](O)c2cc(OC)c(O[C@@H]3O[C@H](CO)[C@@H](O)[C@H](O)[C@H]3O)c(OC)c2)ccc1O : 102
COc1cc(C[C@@H]2C(=O)OC[C@H]2[C@@H](O)c2ccc(O[C@@H]3O[C@H](CO)[C@@H](O)[C@H](O)[C@H]3O)c(OC)c2)ccc1O : 98.2
COc1cc(/C=C/C(=O)O)ccc1O [FERULATE] : 95
O=C(O)c1ccccc1 : 96.4
COc1cc(C[C@H]2C(=O)OC[C@@H]2C(=O)c2ccc(O[C@@H]3O[C@H](CO)[C@@H](O)[C@H](O)[C@H]3O)c(OC)c2)ccc1O : 101
O=C(O)/C=C/c1ccc(O)cc1 : 198
COc1cc(C[C@@H]2C(=O)OC[C@H]2[C@@H](O[C@@H]2O[C@H](CO)[C@@H](O)[C@H](O)[C@H]2O)c2ccc(O)c(OC)c2)ccc1O : 100
CCCCC/C=C/C(=O)CCc1ccc(O)c(OC)c1 : 115
COc1cc([C@H](O)[C@@H]2COC(=O)[C@H]2Cc2ccc(O[C@@H]3O[C@H](CO)[C@@H](O)[C@H](O)[C@H]3O)c(OC)c2)ccc1O : 102

# input // viability at 20 µM lookup, key: "COc1cc(C(=O)O)cc(OC)c1O"
# output 95.9
